# ASSAYED_TARGET: T1, hOrai1-mOrai1 ECL2 (PASGAA) protein (human/mouse chimera, UniProt Q96D31 1-301)
# T1 construct: also called Ch
# T1 sequence (Q96D31 other isoform, or with tags, fused parts or gaps): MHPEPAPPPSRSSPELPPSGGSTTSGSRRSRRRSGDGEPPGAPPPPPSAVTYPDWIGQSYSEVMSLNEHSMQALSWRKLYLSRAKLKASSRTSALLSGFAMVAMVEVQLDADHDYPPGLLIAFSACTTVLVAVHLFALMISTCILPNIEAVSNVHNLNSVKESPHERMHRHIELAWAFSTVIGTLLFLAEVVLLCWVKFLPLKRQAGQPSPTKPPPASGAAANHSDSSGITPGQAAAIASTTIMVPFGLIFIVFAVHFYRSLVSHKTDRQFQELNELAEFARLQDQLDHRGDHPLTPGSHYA
# EXPERIMENTAL_DETAILS: FACS, 293EBNA
# Parameters: concentration or dose not given beside the values
# Excerpt: FIG. 17A-D illustrates the results of FACS analysis showing binding to the indicated mOrai1-hOrai1 ECL2 chimeric mutants expressed on the surface of HEK-293-EBNA cells. Transfected cells were stained first with recombinant monoclonal antibodies then counter-stained with a secondary phycoerythrin-labeled goat (“Gt”) anti-human (“Hu”) IgG F(ab′)₂ antibody fragment and visualized using FACS. […]
OUTCOME_MEASURE: percent of control (POC) of FACS Geo Mean

Example binders with recorded percent of control (POC) of FACS Geo Mean:
BINDER	READING
mAb 5F2.1 (antibody, human IgG2, lambda, V domains shown, fully human IgG2 lambda, Campaign 2) VH: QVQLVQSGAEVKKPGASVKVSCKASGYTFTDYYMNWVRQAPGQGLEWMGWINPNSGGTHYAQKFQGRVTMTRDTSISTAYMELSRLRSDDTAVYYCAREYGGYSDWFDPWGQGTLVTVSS VL: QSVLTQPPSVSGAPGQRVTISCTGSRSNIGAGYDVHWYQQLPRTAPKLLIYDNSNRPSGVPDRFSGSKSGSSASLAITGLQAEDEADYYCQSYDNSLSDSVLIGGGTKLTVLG	< 1%
mAb 5B1.1 (antibody, human IgG2, lambda, V domains shown, fully human IgG2 lambda, Campaign 2; also called mAb 5Bl1.1) VH: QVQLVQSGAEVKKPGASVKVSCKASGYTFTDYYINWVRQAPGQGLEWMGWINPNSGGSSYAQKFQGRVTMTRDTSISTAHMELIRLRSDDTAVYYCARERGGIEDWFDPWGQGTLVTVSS VL: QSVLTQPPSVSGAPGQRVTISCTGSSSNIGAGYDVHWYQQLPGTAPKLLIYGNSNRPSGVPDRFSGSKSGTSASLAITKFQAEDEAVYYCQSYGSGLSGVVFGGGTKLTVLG	< 1%

Now consider the entry below.
Ask: Please look up its percent of control (POC) of FACS Geo Mean: mAb 5C1.1 (antibody, human IgG2, lambda, V domains shown, fully human IgG2 lambda, Campaign 2) VH: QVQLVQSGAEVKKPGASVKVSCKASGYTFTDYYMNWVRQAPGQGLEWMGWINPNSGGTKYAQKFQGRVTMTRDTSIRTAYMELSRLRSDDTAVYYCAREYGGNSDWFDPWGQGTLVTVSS VL: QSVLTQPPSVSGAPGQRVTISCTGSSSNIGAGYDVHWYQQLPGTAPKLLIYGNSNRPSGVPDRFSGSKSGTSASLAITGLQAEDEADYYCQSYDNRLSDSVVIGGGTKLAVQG
Result: < 1%
